Tested on: Streptococcus pneumoniae
Conditions: Streptococcus pneumoniae infection in mice; two doses, administered subcutaneously
Each entry below carries its reported log10 ED50.
outcome measure: log10 ED50 (log10 of the value in mg/kg/2)

compound | log10 ED50
CNC(CC(C)C)C(=O)NC1C(=O)NC(CC(N)=O)C(=O)NC2C(=O)NC3C(=O)NC(C(=O)NC(C(=O)O)c4cc(O)cc(O)c4-c4cc3ccc4O)C(O)c3ccc(c(Cl)c3)Oc3cc2cc(c3OC2OC(CO)C(O)C(O)C2OC2CC(C)(NCc3ccc(Br)cc3)C(O)C(C)O2)Oc2ccc(cc2Cl)C1O (stereo not shown) | -0.39
CCN(CC)c1ccc(CNC2(C)CC(OC3C(Oc4c5cc6cc4Oc4ccc(cc4Cl)C(O)C4NC(=O)C(NC(=O)C6NC(=O)C(CC(N)=O)NC(=O)C(NC(=O)C(CC(C)C)NC)C(O)c6ccc(c(Cl)c6)O5)c5ccc(O)c(c5)-c5c(O)cc(O)cc5C(C(=O)O)NC4=O)OC(CO)C(O)C3O)OC(C)C2O)cc1 (stereo not shown) | 0.08
CCCCCCCCN(C)C(CC(C)C)C(=O)NC1C(=O)NC(CC(N)=O)C(=O)NC2C(=O)NC3C(=O)NC(C(=O)NC(C(=O)O)c4cc(O)cc(O)c4-c4cc3ccc4O)C(O)c3ccc(c(Cl)c3)Oc3cc2cc(c3OC2OC(CO)C(O)C(O)C2OC2CC(C)(N)C(O)C(C)O2)Oc2ccc(cc2Cl)C1O (stereo not shown) | 0.49
CCCCOc1ccc(CNC2(C)CC(OC3C(Oc4c5cc6cc4Oc4ccc(cc4Cl)C(O)C4NC(=O)C(NC(=O)C6NC(=O)C(CC(N)=O)NC(=O)C(NC(=O)C(CC(C)C)NC)C(O)c6ccc(c(Cl)c6)O5)c5ccc(O)c(c5)-c5c(O)cc(O)cc5C(C(=O)O)NC4=O)OC(CO)C(O)C3O)OC(C)C2O)cc1 (stereo not shown) | 0.06
CCCCCCCCCCCCNC1(C)CC(OC2C(Oc3c4cc5cc3Oc3ccc(cc3Cl)C(O)C3NC(=O)C(NC(=O)C5NC(=O)C(CC(N)=O)NC(=O)C(NC(=O)C(CC(C)C)NC)C(O)c5ccc(c(Cl)c5)O4)c4ccc(O)c(c4)-c4c(O)cc(O)cc4C(C(=O)O)NC3=O)OC(CO)C(O)C2O)OC(C)C1O (stereo not shown) | -0.38
CCCCCCCCCCN(C)C(CC(C)C)C(=O)NC1C(=O)NC(CC(N)=O)C(=O)NC2C(=O)NC3C(=O)NC(C(=O)NC(C(=O)O)c4cc(O)cc(O)c4-c4cc3ccc4O)C(O)c3ccc(c(Cl)c3)Oc3cc2cc(c3OC2OC(CO)C(O)C(O)C2OC2CC(C)(N)C(O)C(C)O2)Oc2ccc(cc2Cl)C1O (stereo not shown) | 0.56
CCCCCCCCc1ccc(CNC2(C)CC(OC3C(Oc4c5cc6cc4Oc4ccc(cc4Cl)C(O)C4NC(=O)C(NC(=O)C6NC(=O)C(CC(N)=O)NC(=O)C(NC(=O)C(CC(C)C)NC)C(O)c6ccc(c(Cl)c6)O5)c5ccc(O)c(c5)-c5c(O)cc(O)cc5C(C(=O)O)NC4=O)OC(CO)C(O)C3O)OC(C)C2O)cc1 (stereo not shown) | -0.64
CCCCCCCCOc1ccc(CNC2(C)CC(OC3C(Oc4c5cc6cc4Oc4ccc(cc4Cl)C(O)C4NC(=O)C(NC(=O)C6NC(=O)C(CC(N)=O)NC(=O)C(NC(=O)C(CC(C)C)NC)C(O)c6ccc(c(Cl)c6)O5)c5ccc(O)c(c5)-c5c(O)cc(O)cc5C(C(=O)O)NC4=O)OC(CO)C(O)C3O)OC(C)C2O)cc1 (stereo not shown) | -0.70
CNC(CC(C)C)C(=O)NC1C(=O)NC(CC(N)=O)C(=O)NC2C(=O)NC3C(=O)NC(C(=O)NC(C(=O)O)c4cc(O)cc(O)c4-c4cc3ccc4O)C(O)c3ccc(c(Cl)c3)Oc3cc2cc(c3OC2OC(CO)C(O)C(O)C2OC2CC(C)(NCc3ccc(O)cc3)C(O)C(C)O2)Oc2ccc(cc2Cl)C1O (stereo not shown) [Example 105, N^van --( -p-hydroxybenzyl)vancomycin] | 0.10
CCCCCCCCCCNC1(C)CC(OC2C(Oc3c4cc5cc3Oc3ccc(cc3Cl)C(O)C3NC(=O)C(NC(=O)C5NC(=O)C(CC(N)=O)NC(=O)C(NC(=O)C(CC(C)C)NC)C(O)c5ccc(c(Cl)c5)O4)c4ccc(O)c(c4)-c4c(O)cc(O)cc4C(C(=O)O)NC3=O)OC(CO)C(O)C2O)OC(C)C1O (stereo not shown) | -0.29
CCCCc1ccc(CNC2(C)CC(OC3C(Oc4c5cc6cc4Oc4ccc(cc4Cl)C(O)C4NC(=O)C(NC(=O)C6NC(=O)C(CC(N)=O)NC(=O)C(NC(=O)C(CC(C)C)NC)C(O)c6ccc(c(Cl)c6)O5)c5ccc(O)c(c5)-c5c(O)cc(O)cc5C(C(=O)O)NC4=O)OC(CO)C(O)C3O)OC(C)C2O)cc1 (stereo not shown) | 0.10
CCCCCCCCCNC1(C)CC(OC2C(Oc3c4cc5cc3Oc3ccc(cc3Cl)C(O)C3NC(=O)C(NC(=O)C5NC(=O)C(CC(N)=O)NC(=O)C(NC(=O)C(CC(C)C)NC)C(O)c5ccc(c(Cl)c5)O4)c4ccc(O)c(c4)-c4c(O)cc(O)cc4C(C(=O)O)NC3=O)OC(CO)C(O)C2O)OC(C)C1O (stereo not shown) | -0.09
CCCCCCCCNC1(C)CC(OC2C(Oc3c4cc5cc3Oc3ccc(cc3Cl)C(O)C3NC(=O)C(NC(=O)C5NC(=O)C(CC(N)=O)NC(=O)C(NC(=O)C(CC(C)C)NC)C(O)c5ccc(c(Cl)c5)O4)c4ccc(O)c(c4)-c4c(O)cc(O)cc4C(C(=O)O)NC3=O)OC(CO)C(O)C2O)OC(C)C1O (stereo not shown) | -0.36

This collection of values is drawn from patent US4698327A.
